Test system: MC1/MC4;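 further: ratio of EC50 values obtained at MC1 versus MC4 receptors, with MC1 potency measured by luciferase reporter activity in stably transfected cells expressing human MC1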
Details: ratio MC1/MC4
experimental.readout: MC1/MC4 selectivity

substance="Ac-Tyr-Arg-cyclo[Cys-Glu-His-D-Phe-Arg-Trp-Cys]-Ser alcohol [Compound 116]" recorded_measurement=4.00
substance="Ac-Arg-cyclo[Cys-Glu-(1-Me-His)-D-Phe-Arg-Trp-Cys]-NH2 [Compound 51]" recorded_measurement=76.75
substance="Ac-Tyr-Arg-cyclo[Cys-Glu-His-(4-F-D-Phe)-Arg-Trp-Cys]-NH2 [Compound 83]" recorded_measurement=45.95
substance="Ac-D-Arg-cyclo[Cys-Cya-His-D-Phe-Arg-Trp-Cys]-NH2 [Compound 27]" recorded_measurement=30.11
substance="Ac-nLeu-cyclo[Cys-Glu-His-D-Phe-Arg-Trp-Cys]-NH2 [Compound 60]" recorded_measurement=29.95
substance="Ac-Tyr-Arg-cyclo[Cys-Glu-His-D-Phe-Arg-Trp-Cys]-NH2 [Compound 72]" recorded_measurement=22.31
substance="Ac-Tyr-Arg-cyclo[Cys-Glu-(β-(thien-2-yl)-Ala)-D-Phe-Arg-Trp-Cys]-NH2 [Compound 111]" recorded_measurement=7.67
substance="N-(4-phenylsulfonamido-4-oxo-butyryl)-cyclo[hCys-His-D-Phe-Arg-Trp-Cys]-NH2 [Compound 152]" recorded_measurement=7.73
substance="Ac-diaminopropionyl-cyclo[Cys-Glu-His-D-Phe-Arg-Trp-Cys]-NH2 [Compound 43]" recorded_measurement=11.00
substance="Ac-Orn-cyclo[Cys-Glu-His-D-Phe-Arg-Trp-Cys]-NH2 [Compound 62]" recorded_measurement=46.91
substance="N-hexanoyl-cyclo[hCys-His-D-Phe-Arg-Trp-penicillamine]-NH2 [Compound 170]" recorded_measurement=9.00
substance="Ac-Lys(ipr)-cyclo[Cys-Glu-His-D-Phe-Arg-Trp-Cys]-NH2 [Compound 59]" recorded_measurement=20.92
substance="Ac-Tyr-Arg-cyclo[Cys-Glu-His-D-Phe-Arg-Trp-Cys]-Ser-Pro alcohol [Compound 120]" recorded_measurement=1.00
substance="Ac-Tyr-Arg-cyclo[hCys-Glu-His-D-Phe-Arg-Trp-Cys]-NH2 [Compound 166]" recorded_measurement=9.38
substance="N-(2-naphthalenesulfonylamino-4-oxo-butyryl)-D-Arg-cyclo[Cys-Glu-His-D-Phe-Arg-Trp-Cys]-NH2 [Compound 65]" recorded_measurement=2.70
substance="Ac-Tyr-Arg-cyclo[Cys-Glu-(β-(2-furyl)-Ala)-D-Phe-Arg-Trp-Cys]-NH2 [Compound 110]" recorded_measurement=4.27
